Provenance of the data: the supplement of paper PMC10307832

# System: NCI-H3122
# assayRemarks: relative viability (nuclei count vs DMSO), 5 days (fraction); higher = more cells survive
# conditionsUsed: first compound 0.03162 µM
Binary call on relative viability with cut-off 0.2: strictly below means MET, and equality or higher means NOT MET.

Consider NC(=O)Nc1cc(-c2cccc(F)c2)sc1C(=O)N[C@H]1CCCNC1 [AZD7762] + COc1cc2c(Oc3ccc(NC(=O)C4(C(=O)Nc5ccc(F)cc5)CC4)cc3F)ccnc2cc1OCCCN1CCOCC1 [Foretinib] (partner 0.25 µM) . Does its relative viability lie strictly below 0.2?
NOT MET

Given the entry NC(=O)Nc1cc(-c2cccc(F)c2)sc1C(=O)N[C@H]1CCCNC1 [AZD7762] + CCNC(=O)c1noc(-c2cc(C(C)C)c(O)cc2O)c1-c1ccc(CN2CCOCC2)cc1 [Luminespib] (partner 0.01 µM) , would its reported relative viability be below 0.2?
MET

Quick check: does NC(=O)Nc1cc(-c2cccc(F)c2)sc1C(=O)N[C@H]1CCCNC1 [AZD7762] + CC(=O)Nc1cccc(-n2c(=O)n(C3CC3)c(=O)c3c(Nc4ccc(I)cc4F)n(C)c(=O)c(C)c32)c1 [Trametinib] (partner 0.02 µM) have relative viability under 0.2?
NOT MET

I'd appreciate it if you could check whether NC(=O)Nc1cc(-c2cccc(F)c2)sc1C(=O)N[C@H]1CCCNC1 [AZD7762] + N=C(N)NC(=N)NCCc1ccccc1 [Phenformin] (partner 250 µM) has relative viability smaller than 0.2.
NOT MET

====

# System: NCI-H838
# assayRemarks: relative viability (nuclei count vs DMSO), 5 days (fraction); higher = more cells survive
# conditionsUsed: first compound 0.253 µM
Task for the reader: assign each of the following molecules its reported relative viability.
Give the value as a plain number.

Report relative viability, nothing else, for this molecule: Oc1nc(-c2ccc(C(F)(F)F)cc2)nc2c1CSCC2 [XAV939] + CC(=O)c1c(C)c2cnc(Nc3ccc(N4CCNCC4)cn3)nc2n(C2CCCC2)c1=O [Palbociclib] (partner 0.5 µM)
0.203

Give the reported value of relative viability for this record: C=C1C(=O)O[C@@H](CCCCCCCC)[C@@H]1C(=O)O [C-75] + CS(=O)(=O)N1CCN(Cc2cc3nc(-c4cccc5[nH]ncc45)nc(N4CCOCC4)c3s2)CC1 [Pictilisib] (partner 1 µM)
0.376

Supply measured relative viability of C=C1C(=O)O[C@@H](CCCCCCCC)[C@@H]1C(=O)O [C-75] + Nc1nc2[nH]cc(CCc3ccc(C(=O)N[C@@H](CCC(=O)O)C(=O)O)cc3)c2c(=O)[nH]1 [Pemetrexed] (partner 0.2 µM) in your reply.
0.265

Specify measured relative viability for Oc1nc(-c2ccc(C(F)(F)F)cc2)nc2c1CSCC2 [XAV939] + Nc1ncn([C@H]2C[C@H](O)[C@@H](CO)O2)c(=O)n1 [Decitabine] (partner 2 µM) .
0.442

Identify relative viability associated with the molecule C=C1C(=O)O[C@@H](CCCCCCCC)[C@@H]1C(=O)O [C-75] + CC1(C)CCC(c2ccc(Cl)cc2)=C(CN2CCN(c3ccc(C(=O)NS(=O)(=O)c4ccc(N[C@H](CCN5CCOCC5)CSc5ccccc5)c(S(=O)(=O)C(F)(F)F)c4)cc3)CC2)C1 [Navitoclax] (partner 0.5 µM)
0.916

Return reported relative viability. Input molecule: Oc1nc(-c2ccc(C(F)(F)F)cc2)nc2c1CSCC2 [XAV939] + Cc1nc(Nc2ncc(C(=O)Nc3c(C)cccc3Cl)s2)cc(N2CCN(CCO)CC2)n1 [Dasatinib] (partner 0.075 µM)
0.256

Entry C=C1C(=O)O[C@@H](CCCCCCCC)[C@@H]1C(=O)O [C-75] + Cc1nc(Nc2ncc(C(=O)Nc3c(C)cccc3Cl)s2)cc(N2CCN(CCO)CC2)n1 [Dasatinib] (partner 0.075 µM) needs its relative viability filled in; supply it.
0.239

# return recorded relative viability for input Oc1nc(-c2ccc(C(F)(F)F)cc2)nc2c1CSCC2 [XAV939] + NC(=O)Nc1cc(-c2cccc(F)c2)sc1C(=O)N[C@H]1CCCNC1 [AZD7762] (partner 0.2 µM)
0.842

Please report the measured relative viability for C=C1C(=O)O[C@@H](CCCCCCCC)[C@@H]1C(=O)O [C-75] + CC(=O)c1c(C)c2cnc(Nc3ccc(N4CCNCC4)cn3)nc2n(C2CCCC2)c1=O [Palbociclib] (partner 0.5 µM)
0.206

Please supply the value of reported relative viability for the item Oc1nc(-c2ccc(C(F)(F)F)cc2)nc2c1CSCC2 [XAV939] + CS(=O)(=O)N1CCN(Cc2cc3nc(-c4cccc5[nH]ncc45)nc(N4CCOCC4)c3s2)CC1 [Pictilisib] (partner 1 µM)
0.374

====

# System: LCLC-97TM1
# assayRemarks: relative viability (nuclei count vs DMSO), 5 days (fraction); higher = more cells survive
# conditionsUsed: first compound 0.05 µM
Could you please report measured relative viability for the items listed next?
The reply should be a number, written without any unit.

Entry CC1(C)CCC(c2ccc(Cl)cc2)=C(CN2CCN(c3ccc(C(=O)NS(=O)(=O)c4ccc(N[C@H](CCN5CCOCC5)CSc5ccccc5)c(S(=O)(=O)C(F)(F)F)c4)cc3)CC2)C1 [Navitoclax] + CS(=O)(=O)CCNCc1ccc(-c2ccc3ncnc(Nc4ccc(OCc5cccc(F)c5)c(Cl)c4)c3c2)o1 [Lapatinib] (partner 2 µM) needs its relative viability filled in; supply it.
0.865

Give relative viability for CC1(C)CCC(c2ccc(Cl)cc2)=C(CN2CCN(c3ccc(C(=O)NS(=O)(=O)c4ccc(N[C@H](CCN5CCOCC5)CSc5ccccc5)c(S(=O)(=O)C(F)(F)F)c4)cc3)CC2)C1 [Navitoclax] + CC(=O)c1c(C)c2cnc(Nc3ccc(N4CCNCC4)cn3)nc2n(C2CCCC2)c1=O [Palbociclib] (partner 0.5 µM)
0.166

Fill in relative viability for record CC1(C)CCC(c2ccc(Cl)cc2)=C(CN2CCN(c3ccc(C(=O)NS(=O)(=O)c4ccc(N[C@H](CCN5CCOCC5)CSc5ccccc5)c(S(=O)(=O)C(F)(F)F)c4)cc3)CC2)C1 [Navitoclax] + CS(=O)(=O)N1CCN(Cc2cc3nc(-c4cccc5[nH]ncc45)nc(N4CCOCC4)c3s2)CC1 [Pictilisib] (partner 1 µM)
0.193

====

Please respond with reported relative viability for every item in the list.
# Tested on: BEN
# assayRemarks: relative viability (nuclei count vs DMSO), 5 days (fraction); higher = more cells survive
# conditionsUsed: first compound 0.01581 µM
The reply should be a number, written without any unit.

Tell me relative viability of CC1(C)CCC(c2ccc(Cl)cc2)=C(CN2CCN(c3ccc(C(=O)NS(=O)(=O)c4ccc(N[C@H](CCN5CCOCC5)CSc5ccccc5)c(S(=O)(=O)C(F)(F)F)c4)cc3)CC2)C1 [Navitoclax] + Nc1ncn([C@H]2C[C@H](O)[C@@H](CO)O2)c(=O)n1 [Decitabine] (partner 2 µM) when tested on BEN.
0.803

Look up BEN data: relative viability of CC1(C)CCC(c2ccc(Cl)cc2)=C(CN2CCN(c3ccc(C(=O)NS(=O)(=O)c4ccc(N[C@H](CCN5CCOCC5)CSc5ccccc5)c(S(=O)(=O)C(F)(F)F)c4)cc3)CC2)C1 [Navitoclax] + CS(=O)(=O)CCNCc1ccc(-c2ccc3ncnc(Nc4ccc(OCc5cccc(F)c5)c(Cl)c4)c3c2)o1 [Lapatinib] (partner 2 µM) , then report it.
0.596

Write down measured relative viability (BEN) for this compound. CC1(C)CCC(c2ccc(Cl)cc2)=C(CN2CCN(c3ccc(C(=O)NS(=O)(=O)c4ccc(N[C@H](CCN5CCOCC5)CSc5ccccc5)c(S(=O)(=O)C(F)(F)F)c4)cc3)CC2)C1 [Navitoclax] + CS(=O)(=O)N1CCN(Cc2cc3nc(-c4cccc5[nH]ncc45)nc(N4CCOCC4)c3s2)CC1 [Pictilisib] (partner 1 µM)
0.678

====

# Test system: NCI-H2085
# assayRemarks: relative viability (nuclei count vs DMSO), 5 days (fraction); higher = more cells survive
# conditionsUsed: first compound 0.08 µM
reportedMetric: relative viability
When you answer, write just the number.

State, for NCI-H2085, measured relative viability of the compound listed here: Oc1nc(-c2ccc(C(F)(F)F)cc2)nc2c1CSCC2 [XAV939] + Nc1ncn([C@H]2C[C@H](O)[C@@H](CO)O2)c(=O)n1 [Decitabine] (partner 2 µM)
0.536

State relative viability (NCI-H2085) of Oc1nc(-c2ccc(C(F)(F)F)cc2)nc2c1CSCC2 [XAV939] + CC(=O)Nc1cccc(-n2c(=O)n(C3CC3)c(=O)c3c(Nc4ccc(I)cc4F)n(C)c(=O)c(C)c32)c1 [Trametinib] (partner 0.02 µM) .
0.587

Enter relative viability (test system NCI-H2085) for Oc1nc(-c2ccc(C(F)(F)F)cc2)nc2c1CSCC2 [XAV939] + Cc1nc(NC(=O)N2CCC[C@H]2C(N)=O)sc1-c1ccnc(C(C)(C)C(F)(F)F)c1 [Alpelisib] (partner 2 µM)
0.993
